Origin of measurements: patent US20020150912A1

TARGET_OR_SYSTEM: chemokine receptor, CCR5 (Homo sapiens, UniProt P51681)
Sequence (P51681 whole entry): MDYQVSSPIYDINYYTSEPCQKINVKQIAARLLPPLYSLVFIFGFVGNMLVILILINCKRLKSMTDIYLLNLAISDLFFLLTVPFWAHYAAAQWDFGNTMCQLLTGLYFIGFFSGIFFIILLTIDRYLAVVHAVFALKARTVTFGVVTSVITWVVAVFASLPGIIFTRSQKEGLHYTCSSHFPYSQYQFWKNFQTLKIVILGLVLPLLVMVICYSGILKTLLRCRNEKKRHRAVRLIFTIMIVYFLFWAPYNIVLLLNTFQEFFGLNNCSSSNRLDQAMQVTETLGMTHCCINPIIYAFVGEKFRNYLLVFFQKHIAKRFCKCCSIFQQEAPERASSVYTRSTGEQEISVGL
TEST_METHOD_NOTES: HF1pCCR5 reporter cell luciferase assay
Assay type: cell-based
Design: All receptor ORFs were inserted into the pIRESpuro vector (Clontech) by standard techniques; expressed in transfected cells; host or cells: HeLa-derived HF1 reporter cells (HF1pCCR5), pIRESpuro vector
ASSAY_SETUP: CCR5 stably expressed in HF1 reporter cells; read-out: EC50 (agonist concentration giving half maximum effect)
pEC50: −log10 of the molar value.
PROPERTY_MEASURED: pEC50

[
  {
    "SUBSTANCE": "RANTES: a peptide (having the sequence RANTES), agonist of the chemokine receptor CCR5",
    "PROPERTY_MEASURED": "pEC50",
    "MEAS_VALUE": 6.95
  }
]

* * *

Tested on: endogenous ATP receptors present in the HeLa cells
TEST_METHOD_NOTES: HF1 reporter cell luciferase assay, endogenous ATP receptors
Type: cell-based
ASSAY_SETUP: stimulation for 16 hours, read-out: EC50, TRE-mediated luciferase response
PROPERTY_MEASURED: EC50 (µM)

[
  {
    "COMPOUND": "Nc1ncnc2c1ncn2[C@@H]1O[C@H](COP(=O)(O)OP(=O)(O)OP(=O)(O)O)[C@@H](O)[C@H]1O [ATP]",
    "TARGET_OR_SYSTEM": "endogenous ATP receptors present in the HeLa cells",
    "UNIT_INFO": "µM",
    "MEAS_VALUE": 107
  }
]
